biological target: Neuronal acetylcholine receptor; alpha4/beta2 (Rattus norvegicus, UniProt P09483+P12390); assay: In vitro binding affinity by inhibiting [3H]dopamine release in rat brain tissue at aNicotinic acetylcholine receptor alpha4-beta2; type: functional, tissue-based
Sequence (P09483 whole entry): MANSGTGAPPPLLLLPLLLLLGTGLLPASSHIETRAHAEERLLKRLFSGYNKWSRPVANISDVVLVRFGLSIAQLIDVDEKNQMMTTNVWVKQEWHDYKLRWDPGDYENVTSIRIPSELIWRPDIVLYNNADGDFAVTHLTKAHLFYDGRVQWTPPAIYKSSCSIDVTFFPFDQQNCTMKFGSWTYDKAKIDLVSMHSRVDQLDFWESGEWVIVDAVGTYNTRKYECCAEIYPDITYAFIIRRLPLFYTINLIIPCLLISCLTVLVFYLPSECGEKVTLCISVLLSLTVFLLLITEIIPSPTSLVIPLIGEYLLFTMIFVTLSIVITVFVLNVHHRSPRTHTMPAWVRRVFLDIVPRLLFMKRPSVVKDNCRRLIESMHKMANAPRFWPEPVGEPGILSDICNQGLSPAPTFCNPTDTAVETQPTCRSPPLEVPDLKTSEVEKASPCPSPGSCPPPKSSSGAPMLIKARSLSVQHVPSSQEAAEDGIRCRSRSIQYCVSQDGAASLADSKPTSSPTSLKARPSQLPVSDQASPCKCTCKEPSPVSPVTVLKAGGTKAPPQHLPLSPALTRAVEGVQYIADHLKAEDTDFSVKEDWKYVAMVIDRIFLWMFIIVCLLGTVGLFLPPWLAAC
Sequence (P12390 whole entry): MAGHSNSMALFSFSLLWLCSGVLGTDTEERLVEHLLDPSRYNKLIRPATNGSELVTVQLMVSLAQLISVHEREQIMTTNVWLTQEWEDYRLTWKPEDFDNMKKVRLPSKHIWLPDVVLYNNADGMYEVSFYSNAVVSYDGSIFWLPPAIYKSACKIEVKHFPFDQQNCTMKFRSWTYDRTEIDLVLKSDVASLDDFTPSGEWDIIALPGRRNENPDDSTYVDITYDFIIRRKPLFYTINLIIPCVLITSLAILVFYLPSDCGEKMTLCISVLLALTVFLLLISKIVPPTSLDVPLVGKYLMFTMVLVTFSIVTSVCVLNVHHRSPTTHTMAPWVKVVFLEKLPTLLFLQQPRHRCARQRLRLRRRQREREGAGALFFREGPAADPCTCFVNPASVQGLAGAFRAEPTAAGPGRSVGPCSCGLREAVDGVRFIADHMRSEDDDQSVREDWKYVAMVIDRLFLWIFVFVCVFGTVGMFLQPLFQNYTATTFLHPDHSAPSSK
pEC50: −log10 of the molar value.

>  <molecular string>
c1cncc(CN2C3CCC2CC3)c1

>  <pEC50>
8.85

$$$$

====

target: Neuronal acetylcholine receptor; alpha4/beta2 (Rattus norvegicus) (UniProt P09483+P12390); assay: In vitro inhibition of [3H]cytisine binding in rat brain tissue at Nicotinic acetylcholine receptor alpha4-beta2 at 100 uM; assay type: tissue-based
# inhibition listing for each entry below
reported endpoint: inhibition

>  <molecular string>
c1ccc2c(N3C4CCC3CC4)cncc2c1

>  <target under test>
Neuronal acetylcholine receptor; alpha4/beta2 (Rattus norvegicus) (UniProt P09483+P12390)

>  <reading>
< 50%

$$$$
>  <molecular string>
c1cc(N2C3CCC2CC3)ccn1

>  <target under test>
Neuronal acetylcholine receptor; alpha4/beta2 (Rattus norvegicus) (UniProt P09483+P12390)

>  <reading>
< 50%

$$$$
>  <molecular string>
COc1ccc(N2C3CCC2CC3)cn1

>  <target under test>
Neuronal acetylcholine receptor; alpha4/beta2 (Rattus norvegicus) (UniProt P09483+P12390)

>  <reading>
< 50%

$$$$
>  <molecular string>
c1cncc(N2C3CCC2CC3)c1

>  <target under test>
Neuronal acetylcholine receptor; alpha4/beta2 (Rattus norvegicus) (UniProt P09483+P12390)

>  <reading>
< 50%

$$$$
>  <molecular string>
c1cc(CN2C3CCC2CC3)ccn1

>  <target under test>
Neuronal acetylcholine receptor; alpha4/beta2 (Rattus norvegicus) (UniProt P09483+P12390)

>  <reading>
< 50%

$$$$
>  <molecular string>
c1ccc(N2C3CCC2CC3)nc1

>  <target under test>
Neuronal acetylcholine receptor; alpha4/beta2 (Rattus norvegicus) (UniProt P09483+P12390)

>  <reading>
< 50%

$$$$
>  <molecular string>
c1ccc2ncc(N3C4CCC3CC4)cc2c1

>  <target under test>
Neuronal acetylcholine receptor; alpha4/beta2 (Rattus norvegicus) (UniProt P09483+P12390)

>  <reading>
< 50%

$$$$
>  <molecular string>
Ic1ccc(N2C3CCC2CC3)nc1

>  <target under test>
Neuronal acetylcholine receptor; alpha4/beta2 (Rattus norvegicus) (UniProt P09483+P12390)

>  <reading>
< 50%

$$$$

====

target: Neuronal acetylcholine receptor; alpha4/beta2 (Rattus norvegicus, UniProt P09483+P12390); test: in vitro binding affinity by inhibiting [3H]cytisine binding in rat brain tissue at Nicotinic acetylcholine receptor alpha4-beta2

>  <molecular string>
O=c1cccc2n1C[C@@H]1CNC[C@H]2C1

>  <target under test>
Neuronal acetylcholine receptor; alpha4/beta2 (Rattus norvegicus, UniProt P09483+P12390)

>  <Ki, nM>
4.2

$$$$

====

A collection of compounds and their measured Ki
biological target: Neuronal acetylcholine receptor; alpha4/beta2 (Rattus norvegicus, UniProt P09483+P12390); assay: In vitro binding affinity by inhibiting [3H]cytisine binding in rat brain tissue at Nicotinic acetylcholine receptor alpha4-beta2; type: tissue-based

>  <molecular string>
c1cncc(CN2C3CCC2CC3)c1

>  <Ki>
98 nM

$$$$
>  <molecular string>
c1ccc(CN2C3CCC2CC3)nc1

>  <Ki>
31300 nM

$$$$
>  <molecular string>
Clc1ccc(CN2C3CCC2CC3)cn1

>  <Ki>
245 nM

$$$$
>  <molecular string>
c1cncc(CCN2C3CCC2CC3)c1

>  <Ki>
2230 nM

$$$$
